For each record, write down the corresponding log10(IC50).
target: KRAS protein containing G12D mutation (Homo sapiens (Human), UniProt P01116, G12D); experiment: SOS-catalyzed nucleotide exchange assay (GNE), TR-FRET; format: biochemical; conditions: biotinylated KRAS G12D, SOS and GTP, 60-minute incubation
Sequence (P01116 other isoform, or with tags, fused parts or gaps G12D (already in the parent)): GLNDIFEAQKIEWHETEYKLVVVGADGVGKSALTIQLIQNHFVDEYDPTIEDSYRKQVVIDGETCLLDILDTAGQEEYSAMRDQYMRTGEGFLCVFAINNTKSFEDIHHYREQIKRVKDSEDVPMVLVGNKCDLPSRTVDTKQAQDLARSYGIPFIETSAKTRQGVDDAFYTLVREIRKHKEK
Counter-ions that a name gives are not always drawn.
# log10 transformed; quantity=IC50; unit=nM

Prompt line: Supply measured log10(IC50) of Cc1c(Cl)cc2[nH]ncc2c1-c1c(F)cc2c(N3CC4CCC(C3)N4)nc(OCC3(CN(C)C)CC3)nc2c1F in your reply.
Response line: 2.41

Prompt line: Respond only with log10(IC50) recorded for C[C@]12CC[C@H](CN(c3nc(OC[C@@]45CCCN4C[C@H](F)C5)nc4c(F)c(-c5cc(O)cc(Cl)c5Cl)c(F)cc34)C1)N2 (single isomer, unassigned) [Ex. 129b, HCl]
Response line: 1.15

Prompt line: Consider the molecule C#Cc1c(F)ccc2cc(N)nc(-c3c(F)cc4c(N5C[C@H]6CC[C@@H](C5)N6)nc(OC[C@@]56CCCN5C[C@H](F)C6)nc4c3F)c12 (single isomer, unassigned) [252b] . State its measured log10(IC50).
Response line: 2.31

Prompt line: Query log10(IC50) for C#Cc1cccc2cc(O)cc(-c3c(F)cc4c(N5CC6CC[C@@](C)(C5)N6)nc(OCC5(CN6CC[C@@H](F)C6)CC5)nc4c3F)c12 (single isomer, unassigned)
Response line: -0.15

Prompt line: State its log10(IC50) for this molecule: Cc1c(Cl)cc2[nH]nc(C)c2c1-c1c(F)cc2c(N3CC4CCC(C3)N4)nc(OCC3(CN4CCOCC4)CC3)nc2c1F
Response line: 1.84

Prompt line: Specify log10(IC50) for Oc1cc(-c2c(F)cc3c(N4CC5CC(F)C(C4)N5)nc(OCC4(CN5CCOCC5)CC4)nc3c2F)c2ccccc2c1 (single isomer, unassigned) [Ex. 3b] and stop.
Response line: 3.33

Prompt line: Indicate the recorded log10(IC50) value for this molecule: CN(C)CC1(COc2nc(N3C[C@H]4N[C@@](C)(C[C@@H]4O)C3)c3cc(Cl)c(-c4cc(O)cc5ccccc45)c(F)c3n2)CC1
Response line: 3.06

Prompt line: Fill in log10(IC50) for record C[C@]12CC[C@H](CN(c3nc(OCC45CNCC4C5)nc4c(F)c(-c5cc(O)cc6cccc(Cl)c56)c(F)cc34)C1)N2 (mixture of isomers) [Ex. 165, TFA]
Response line: 2.17

Prompt line: Query log10(IC50) for Cc1cc2[nH]ncc2c(C2Cc3nc(OCC4(CN5CC[C@@H](F)C5)CC4)nc(N4C[C@H]5CC[C@@](C)(C4)N5)c3CO2)c1C(F)(F)F (stereo partly drawn)
Response line: 3.60

Prompt line: Assign log10(IC50) to the following record: C[C@]12CC[C@H](CN(c3nc(OCC4(CN5CC[C@@H](F)C5)CC4)nc4c3CCN(c3cccc5cccc(Br)c35)C4)C1)N2
Response line: 2.64

Prompt line: Tell us which log10(IC50) value is on record for Cc1cc2[nH]ncc2c(-c2c(F)cc3c(N4C[C@H]5CC[C@@H](C4)N5)nc(OCC4(CN(C)C)CC4(F)F)nc3c2F)c1Cl (stereo partly drawn)
Response line: 2.16

Prompt line: Report log10(IC50), nothing else, for this molecule: NC1(COc2nc(N3CC4CCC(C3)N4)c3cc(Cl)c(-c4cc(O)cc5ccccc45)c(F)c3n2)CCCC1 [Example 112, TFA]
Response line: 3.44
